The measurements presented in this section are drawn from PubChem BioAssay AID2060886.

- Tested on: 653999-131-R-J2-PDC complex spheroids, growth inhibition
- experiment_summary: Anticancer human tumor 653999-131-R-J2-PDC patient-derived lung adenocarcinoma cell line growth inhibition [RAS]
- conditions: second compound 0.3 µM; first compound 0.01 µM; active compounds read low
endpoint_label: viability, T/C (%)
Please respond with the number in % and leave the unit unwritten.

# example entries with known answers
CCN1CCN(Cc2ccc(Nc3ncc(F)c(-c4cc(F)c5nc(C)n(C(C)C)c5c4)n3)nc2)CC1 + CCn1c(-c2cccnc2C(C)OC)c2c3cc(ccc31)N1CCOC(CC(NC(=O)C(C(C)C)N(C)C(=O)C3(F)CCN(C(=O)C#CC(C)(C)N(C)C)CC3)C(=O)N3CCCC(N3)C(=O)OCC(C)(C)C2)C1	81.6
C=CC(=O)N1CCN(c2nc(OCC3CCCN3C)nc3c(F)c(-c4nc(N)cc(C)c4C(F)(F)F)c(Cl)cc23)C(C)C1 (stereo not drawn) + CCn1c(-c2cccnc2C(C)OC)c2c3cc(ccc31)N1CCOC(CC(NC(=O)C(C(C)C)N(C)C(=O)C3(F)CCN(C(=O)C#CC(C)(C)N(C)C)CC3)C(=O)N3CCCC(N3)C(=O)OCC(C)(C)C2)C1	98.9

Turning now to a further compound:
Tell me measured viability, T/C for Nc1ccn(C2OC(CO)C(O)C2(F)F)c(=O)n1 (stereo not drawn) + CCn1c(-c2cccnc2C(C)OC)c2c3cc(ccc31)N1CCOC(CC(NC(=O)C(C(C)C)N(C)C(=O)C3(F)CCN(C(=O)C#CC(C)(C)N(C)C)CC3)C(=O)N3CCCC(N3)C(=O)OCC(C)(C)C2)C1 please. 78.3

----------
- System: 653999-131-R-J2-PDC complex spheroids, growth inhibition
- experiment_summary: Anticancer human tumor 653999-131-R-J2-PDC cell line growth inhibition [RAS];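 further: spheroids exposed to the agents for seven days before the readout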
- conditions: second compound 10 µM; first compound 0.1 µM; active compounds read low
Below, each entry is listed alongside its reported viability, T/C.
Please respond with the number in % and leave the unit unwritten.

# example entries with known answers
CC1(O)CCCC1n1c(=O)c(C(F)F)cc2cnc(NC3CCN(S(C)(=O)=O)CC3)nc21 (centres undefined) + C#Cc1c(F)ccc2cc(O)cc(-c3ncc4c(N5CC6CCC(C5)N6)nc(OCC56CCCN5CC(F)C6)nc4c3F)c12	17.1
Cc1nc(N2CCC3(CC2)COC(C)C3N)c(CO)nc1Sc1ccnc(N)c1Cl (centres undefined) + C#Cc1c(F)ccc2cc(O)cc(-c3ncc4c(N5CC6CCC(C5)N6)nc(OCC56CCCN5CC(F)C6)nc4c3F)c12	13.9
CC(C)NCC(C(=O)N1CCN(c2ncnc3c2C(C)CC3O)CC1)c1ccc(Cl)cc1 (centres undefined) + C#Cc1c(F)ccc2cc(O)cc(-c3ncc4c(N5CC6CCC(C5)N6)nc(OCC56CCCN5CC(F)C6)nc4c3F)c12	23.3

Turning now to a further compound:
Tell me measured viability, T/C for CCC(CC)c1cc(NC2CCC(N)C2)n2nccc2n1 (centres undefined) + C#Cc1c(F)ccc2cc(O)cc(-c3ncc4c(N5CC6CCC(C5)N6)nc(OCC56CCCN5CC(F)C6)nc4c3F)c12 please. 33.5

----------
- System: 653999-131-R-J2-PDC complex spheroids, growth inhibition
- experiment_summary: Anticancer human tumor 653999-131-R-J2-PDC cell line growth inhibition [RAS];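 further: spheroids exposed to the agents for seven days before the readout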
- conditions: second compound 0.316 µM; first compound 0.1 µM; active compounds read low
Checkbox rule: viability, T/C lower than 50% = condition met; viability, T/C not lower than 50% = condition not met.

CC(Nc1ccc2c(c1)OCCn1cc(N3C(=O)OCC3C(F)F)nc1-2)C(N)=O (stereo not given) + C=CC(=O)N1CCN(c2nc(OCC3CCCN3C)nc3c(F)c(-c4nc(N)cc(C)c4C(F)(F)F)c(Cl)cc23)C(C)C1	condition not met
C=CC(=O)Nc1cc(Nc2nccc(-c3cn(C)c4ccccc34)n2)c(OC)cc1N(C)CCN(C)C + C#Cc1c(F)ccc2cc(O)cc(-c3ncc4c(N5CC6CCC(C5)N6)nc(OCC56CCCN5CC(F)C6)nc4c3F)c12	condition met

Then there is this molecule:
Determine if C[C@@H](NC(=O)c1ncnc(N)c1Cl)c1ncc(C(=O)Nc2cc(C(F)(F)F)c(Cl)cn2)s1 + C=CC(=O)N1CCN(c2nc(OCC3CCCN3C)nc3c(F)c(-c4nc(N)cc(C)c4C(F)(F)F)c(Cl)cc23)C(C)C1 shows viability, T/C strictly lower than 50%. condition not met

----------
- Test system: 653999-131-R-J2-PDC complex spheroids, growth inhibition
- experiment_summary: Anticancer human tumor 653999-131-R-J2-PDC cell line growth inhibition [RAS];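 further: spheroids exposed to the agents for seven days before the readout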
- conditions: second compound 1 µM; first compound 0.316 µM; active compounds read low
endpoint_label: viability, T/C (%)
Please respond with the number in % and leave the unit unwritten.

# example entries with known answers
CC(C)NCC(C(=O)N1CCN(c2ncnc3c2C(C)CC3O)CC1)c1ccc(Cl)cc1 (stereo not given) + C#Cc1c(F)ccc2cc(O)cc(-c3ncc4c(N5CC6CCC(C5)N6)nc(OCC56CCCN5CC(F)C6)nc4c3F)c12	45
Cc1nc(N2CCC3(CC2)COC(C)C3N)c(CO)nc1Sc1ccnc(N)c1Cl (stereo not given) + C#Cc1c(F)ccc2cc(O)cc(-c3ncc4c(N5CC6CCC(C5)N6)nc(OCC56CCCN5CC(F)C6)nc4c3F)c12	48.5
Cc1nc(N2CCC3(CC2)COC(C)C3N)c(CO)nc1Sc1ccnc(N)c1Cl (stereo not given) + C=CC(=O)N1CCN(c2nc(OCC3CCCN3C)nc3c(F)c(-c4nc(N)cc(C)c4C(F)(F)F)c(Cl)cc23)C(C)C1	74.8

Tell me measured viability, T/C for CCC(CC)c1cc(NC2CCC(N)C2)n2nccc2n1 (stereo not given) + C=CC(=O)N1CCN(c2nc(OCC3CCCN3C)nc3c(F)c(-c4nc(N)cc(C)c4C(F)(F)F)c(Cl)cc23)C(C)C1 please. 111

----------
Below, each entry is listed alongside its reported viability, T/C.
- System: 653999-131-R-J2-PDC complex spheroids, growth inhibition
- experiment_summary: Anticancer human tumor 653999-131-R-J2-PDC cell line growth inhibition [RAS];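 further: spheroids exposed to the agents for seven days before the readout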
- conditions: compound 0.1 µM; active compounds read low

CC(=O)OC12COC1CC(O)C1(C)C(=O)C(O)C3=C(C)C(OC(=O)C(O)C(NC(=O)OC(C)(C)C)c4ccccc4)CC(O)(C(OC(=O)c4ccccc4)C21)C3(C)C (centres undefined)	58.8% [middle of 4 runs]
CC(C)NCC(C(=O)N1CCN(c2ncnc3c2C(C)CC3O)CC1)c1ccc(Cl)cc1 (centres undefined)	96.7% [middle of 4 runs]
C#Cc1c(F)ccc2cc(O)cc(-c3ncc4c(N5CC6CCC(C5)N6)nc(OCC56CCCN5CC(F)C6)nc4c3F)c12 (centres undefined)	89.6% [middle of 8 runs]
Nc1ccn(C2OC(CO)C(O)C2(F)F)c(=O)n1 (centres undefined)	51.2% [middle of 4 runs]
CC1(O)CCCC1n1c(=O)c(C(F)F)cc2cnc(NC3CCN(S(C)(=O)=O)CC3)nc21 (centres undefined)	69.3% [middle of 4 runs]
CCC(CC)c1cc(NC2CCC(N)C2)n2nccc2n1 (centres undefined)	107% [middle of 4 runs]
O=C(c1ccc(F)c(F)c1Nc1ccc(I)cc1F)N1CC(O)([C@@H]2CCCCN2)C1	51.2% [middle of 4 runs]
Cc1nc(N2CCC3(CC2)COC(C)C3N)c(CO)nc1Sc1ccnc(N)c1Cl (centres undefined)	98.4% [middle of 4 runs]

Turning now to a further compound:
Report value only: viability, T/C, 653999-131-R-J2-PDC complex spheroids, growth inhibition, CC(Nc1ccc2c(c1)OCCn1cc(N3C(=O)OCC3C(F)F)nc1-2)C(N)=O (centres undefined) 77.8% [middle of 4 runs]

----------
- Test system: 653999-131-R-J2-PDC complex spheroids, growth inhibition
- experiment_summary: Anticancer human tumor 653999-131-R-J2-PDC cell line growth inhibition [RAS];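 further: spheroids exposed to the agents for seven days before the readout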
- conditions: second compound 0.00949 µM; first compound 0.0316 µM; active compounds read low
endpoint_label: viability, T/C (%)
Please respond with the number in % and leave the unit unwritten.

Tell me measured viability, T/C for NC1c2ccccc2OC12CCN(c1cnc3c(N4CCCc5ncccc54)n[nH]c3n1)CC2 (stereo not given) + CCn1c(-c2cccnc2C(C)OC)c2c3cc(ccc31)N1CCOC(CC(NC(=O)C(C(C)C)N(C)C(=O)C3(F)CCN(C(=O)C#CC(C)(C)N(C)C)CC3)C(=O)N3CCCC(N3)C(=O)OCC(C)(C)C2)C1 please. 70.3

Tell me measured viability, T/C for C=CC(=O)N1CCN(c2nc(OCC3CCCN3C)nc3c(F)c(-c4nc(N)cc(C)c4C(F)(F)F)c(Cl)cc23)C(C)C1 (stereo not given) + CCn1c(-c2cc(N3CCN(C)CC3)cnc2C(C)OC)c2c3cc(ccc31)-c1csc(n1)CC(NC(=O)C1CC1C)C(=O)N1CCCC(N1)C(=O)OCC(C)(C)C2 please. 50.2

Tell me measured viability, T/C for C=CC(=O)Nc1cc(Nc2nccc(-c3cn(C)c4ccccc34)n2)c(OC)cc1N(C)CCN(C)C + CCn1c(-c2cc(N3CCN(C)CC3)cnc2C(C)OC)c2c3cc(ccc31)-c1csc(n1)CC(NC(=O)C1CC1C)C(=O)N1CCCC(N1)C(=O)OCC(C)(C)C2 please. 36.7

Tell me measured viability, T/C for CCC(CC)c1cc(NC2CCC(N)C2)n2nccc2n1 (stereo not given) + CCn1c(-c2cccnc2C(C)OC)c2c3cc(ccc31)N1CCOC(CC(NC(=O)C(C(C)C)N(C)C(=O)C3(F)CCN(C(=O)C#CC(C)(C)N(C)C)CC3)C(=O)N3CCCC(N3)C(=O)OCC(C)(C)C2)C1 please. 102

Tell me measured viability, T/C for Nc1ccn(C2OC(CO)C(O)C2(F)F)c(=O)n1 (stereo not given) + CCn1c(-c2cc(N3CCN(C)CC3)cnc2C(C)OC)c2c3cc(ccc31)-c1csc(n1)CC(NC(=O)C1CC1C)C(=O)N1CCCC(N1)C(=O)OCC(C)(C)C2 please. 25

Tell me measured viability, T/C for CC(C)NCC(C(=O)N1CCN(c2ncnc3c2C(C)CC3O)CC1)c1ccc(Cl)cc1 (stereo not given) + CCn1c(-c2cccnc2C(C)OC)c2c3cc(ccc31)N1CCOC(CC(NC(=O)C(C(C)C)N(C)C(=O)C3(F)CCN(C(=O)C#CC(C)(C)N(C)C)CC3)C(=O)N3CCCC(N3)C(=O)OCC(C)(C)C2)C1 please. 118
